# System: MCF-7
# ASSAY INFO: Cell viability assay (ATPlite)
# Assay type: cell-based
# RUN CONDITIONS: Homo sapiens, MCF7; MCF-7 cell line, 72 hours incubation
OUTCOME MEASURE: IC50
Answers without a unit are incomplete; give the number and then its unit.

Give its IC50 value. Item: O=C(c1ccc(Oc2ccccc2)cc1Cl)c1c[nH]c2ncnc(N[C@@H]3CC[C@@H](CO)OC3)c12 12.1 µM

----------
# SUBJECT OF TEST: AurA/TPX2 (Homo sapiens)
# Construct: purchased Carna Biosciences
# Sequence (O14965 whole entry): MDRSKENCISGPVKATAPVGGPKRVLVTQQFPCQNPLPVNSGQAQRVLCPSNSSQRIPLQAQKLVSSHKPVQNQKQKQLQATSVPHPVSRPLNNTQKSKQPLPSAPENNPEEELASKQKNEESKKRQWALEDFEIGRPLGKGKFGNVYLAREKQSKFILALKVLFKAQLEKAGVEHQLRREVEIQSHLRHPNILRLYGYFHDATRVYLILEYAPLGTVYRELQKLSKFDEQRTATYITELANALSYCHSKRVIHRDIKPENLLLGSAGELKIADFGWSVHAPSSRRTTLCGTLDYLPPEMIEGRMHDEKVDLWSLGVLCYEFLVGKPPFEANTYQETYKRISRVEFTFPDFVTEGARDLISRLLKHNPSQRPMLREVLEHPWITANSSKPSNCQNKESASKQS
# Sequence (Q9ULW0 1-43 partner limits assumed): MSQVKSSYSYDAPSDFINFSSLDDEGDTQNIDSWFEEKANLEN
# ASSAY INFO: Kinase panel profiling at 1 µmol/L (mobility shift assay, Carna)
# Type: biochemical
# RUN CONDITIONS: 1 µmol/L of BTK inhibitor
OUTCOME MEASURE: Percentage inhibition of kinase enzyme activity (%)
Answers are plain numbers, in %.

> print(dat)
                            compound.smiles  units  value.observed
1  C=CC(=O)N1CCC[C@@H](n2nc(-c3ccc(Oc4ccccc4)cc3)c3c(N)ncnc32)C1      %           -2.33

I have 2 compounds here; please give me Percentage inhibition of kinase enzyme activity for each one.
1. CC#CC(=O)N1CCC[C@H]1c1nc(-c2ccc(C(=O)Nc3ccccn3)cc2)c2c(N)nccn12
2. O=C(c1ccc(Oc2ccccc2)cc1Cl)c1c[nH]c2ncnc(N[C@@H]3CC[C@@H](CO)OC3)c12

-4.71
4.98

Reported Percentage inhibition of kinase enzyme activity, compound COc1ccc(F)cc1C(=O)NCc1ccc(-c2nn([C@@H](C)C(F)(F)F)c(N)c2C(N)=O)cc1 : ____ 1.13

----------
Assign Percentage inhibition of kinase enzyme activity to each entry below.
# SUBJECT OF TEST: MSK2 (Homo sapiens, UniProt O75676)
# Construct: purchased Carna Biosciences
# Sequence (O75676 whole entry): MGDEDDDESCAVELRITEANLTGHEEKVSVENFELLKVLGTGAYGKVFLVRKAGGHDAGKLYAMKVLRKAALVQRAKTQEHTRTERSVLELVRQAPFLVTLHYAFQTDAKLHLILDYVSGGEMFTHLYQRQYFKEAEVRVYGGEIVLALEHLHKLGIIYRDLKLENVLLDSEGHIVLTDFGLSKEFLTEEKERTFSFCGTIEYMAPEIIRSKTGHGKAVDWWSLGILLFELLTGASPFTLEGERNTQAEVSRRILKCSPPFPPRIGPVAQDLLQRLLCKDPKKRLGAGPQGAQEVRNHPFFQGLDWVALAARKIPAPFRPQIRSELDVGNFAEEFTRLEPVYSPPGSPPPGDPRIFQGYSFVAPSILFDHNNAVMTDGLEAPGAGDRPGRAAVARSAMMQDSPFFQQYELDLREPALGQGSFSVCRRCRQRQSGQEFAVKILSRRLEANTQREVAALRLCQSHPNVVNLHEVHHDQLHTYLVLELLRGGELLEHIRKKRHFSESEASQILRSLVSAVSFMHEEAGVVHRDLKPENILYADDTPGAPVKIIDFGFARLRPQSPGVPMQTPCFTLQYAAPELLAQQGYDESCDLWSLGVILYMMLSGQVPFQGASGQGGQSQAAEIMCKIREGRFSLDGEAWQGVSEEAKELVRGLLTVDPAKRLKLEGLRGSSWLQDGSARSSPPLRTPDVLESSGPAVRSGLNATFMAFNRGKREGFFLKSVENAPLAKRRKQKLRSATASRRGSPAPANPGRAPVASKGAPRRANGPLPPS
# ASSAY INFO: Kinase panel profiling at 1 µmol/L (mobility shift assay, Carna)
# Format: biochemical
# RUN CONDITIONS: 1 µmol/L of BTK inhibitor
Give bare numbers, in %.

> print(dat)
                            compound.smiles  value.observed
1  CC#CC(=O)N1CCC[C@H]1c1nc(-c2ccc(C(=O)Nc3ccccn3)cc2)c2c(N)nccn12            1.53

For the 3 compounds below, give their Percentage inhibition of kinase enzyme activity values.
1. C=CC(=O)N1CCC[C@@H](n2nc(-c3ccc(Oc4ccccc4)cc3)c3c(N)ncnc32)C1
2. O=C(c1ccc(Oc2ccccc2)cc1Cl)c1c[nH]c2ncnc(N[C@@H]3CC[C@@H](CO)OC3)c12
3. COc1ccc(F)cc1C(=O)NCc1ccc(-c2nn([C@@H](C)C(F)(F)F)c(N)c2C(N)=O)cc1

1: -2.09; 2: 5.69; 3: 1.57

----------
# SUBJECT OF TEST: skMLCK (Homo sapiens, UniProt Q9H1R3)
# Construct: purchased Carna Biosciences
# Sequence (Q9H1R3 whole entry): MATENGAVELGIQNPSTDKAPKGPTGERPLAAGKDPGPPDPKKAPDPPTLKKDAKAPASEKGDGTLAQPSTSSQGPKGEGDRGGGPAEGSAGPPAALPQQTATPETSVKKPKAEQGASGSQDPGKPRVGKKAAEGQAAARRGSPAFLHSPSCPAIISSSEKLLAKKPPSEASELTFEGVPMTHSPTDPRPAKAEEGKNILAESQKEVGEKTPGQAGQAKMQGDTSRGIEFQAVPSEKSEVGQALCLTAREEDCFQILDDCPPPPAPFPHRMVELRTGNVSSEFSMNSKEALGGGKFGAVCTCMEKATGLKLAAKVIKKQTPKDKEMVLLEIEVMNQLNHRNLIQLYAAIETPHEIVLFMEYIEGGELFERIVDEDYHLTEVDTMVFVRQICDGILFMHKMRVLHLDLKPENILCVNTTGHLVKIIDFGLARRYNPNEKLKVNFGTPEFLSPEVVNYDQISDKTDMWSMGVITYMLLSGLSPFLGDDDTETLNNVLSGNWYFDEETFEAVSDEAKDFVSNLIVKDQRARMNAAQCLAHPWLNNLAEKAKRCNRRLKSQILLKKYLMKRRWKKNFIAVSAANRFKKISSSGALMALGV
# ASSAY INFO: Kinase panel profiling at 1 µmol/L (mobility shift assay, Carna)
# Type: biochemical
# RUN CONDITIONS: 1 µmol/L of BTK inhibitor
OUTCOME MEASURE: Percentage inhibition of kinase enzyme activity (%)
Give bare numbers, in %.

> print(dat)
                            compound.smiles                        subject.of.test  value.observed
1  O=C(c1ccc(Oc2ccccc2)cc1Cl)c1c[nH]c2ncnc(N[C@@H]3CC[C@@H](CO)OC3)c12  skMLCK (Homo sapiens, UniProt Q9H1R3)            2.60
2  COc1ccc(F)cc1C(=O)NCc1ccc(-c2nn([C@@H](C)C(F)(F)F)c(N)c2C(N)=O)cc1  skMLCK (Homo sapiens, UniProt Q9H1R3)           -3.69

Lab note: each compound below needs its Percentage inhibition of kinase enzyme activity filled in.
1. C=CC(=O)N1CCC[C@@H](n2nc(-c3ccc(Oc4ccccc4)cc3)c3c(N)ncnc32)C1
2. CC#CC(=O)N1CCC[C@H]1c1nc(-c2ccc(C(=O)Nc3ccccn3)cc2)c2c(N)nccn12

[-16.74, -17.48]

----------
# SUBJECT OF TEST: DYRK2 (Homo sapiens)
# Construct: purchased Carna Biosciences
# Sequence (Q92630 1-601): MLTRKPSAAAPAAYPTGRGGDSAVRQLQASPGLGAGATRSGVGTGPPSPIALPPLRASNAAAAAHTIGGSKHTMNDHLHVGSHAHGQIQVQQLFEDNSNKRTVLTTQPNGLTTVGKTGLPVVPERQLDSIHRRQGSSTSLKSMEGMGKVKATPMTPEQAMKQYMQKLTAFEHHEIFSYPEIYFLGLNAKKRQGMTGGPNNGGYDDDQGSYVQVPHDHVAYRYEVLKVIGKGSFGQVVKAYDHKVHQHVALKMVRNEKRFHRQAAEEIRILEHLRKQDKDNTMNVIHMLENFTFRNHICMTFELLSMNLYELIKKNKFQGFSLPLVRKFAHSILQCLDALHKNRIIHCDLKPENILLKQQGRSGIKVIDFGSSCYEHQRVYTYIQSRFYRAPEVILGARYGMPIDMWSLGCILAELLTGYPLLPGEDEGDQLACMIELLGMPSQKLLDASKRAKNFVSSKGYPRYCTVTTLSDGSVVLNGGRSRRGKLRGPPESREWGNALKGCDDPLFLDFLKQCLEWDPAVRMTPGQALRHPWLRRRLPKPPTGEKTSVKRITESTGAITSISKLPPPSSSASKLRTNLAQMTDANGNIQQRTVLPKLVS
# ASSAY INFO: Kinase panel profiling at 1 µmol/L (mobility shift assay, Carna)
# Format: biochemical
# RUN CONDITIONS: 1 µmol/L of BTK inhibitor
OUTCOME MEASURE: Percentage inhibition of kinase enzyme activity
Answer as a quantity: numeral, then unit.

A selection of reference data follows.
> print(dat)
                            compound.smiles  value.observed
1  COc1ccc(F)cc1C(=O)NCc1ccc(-c2nn([C@@H](C)C(F)(F)F)c(N)c2C(N)=O)cc1          -4.14%
2  O=C(c1ccc(Oc2ccccc2)cc1Cl)c1c[nH]c2ncnc(N[C@@H]3CC[C@@H](CO)OC3)c12          -2.66%
3  CC#CC(=O)N1CCC[C@H]1c1nc(-c2ccc(C(=O)Nc3ccccn3)cc2)c2c(N)nccn12         -16.01%

Need Percentage inhibition of kinase enzyme activity, item C=CC(=O)N1CCC[C@@H](n2nc(-c3ccc(Oc4ccccc4)cc3)c3c(N)ncnc32)C1 -1.83%

----------
# SUBJECT OF TEST: EPHA8 (Homo sapiens, UniProt P29322)
# Construct: purchased Carna Biosciences
# Sequence (P29322 28-1005): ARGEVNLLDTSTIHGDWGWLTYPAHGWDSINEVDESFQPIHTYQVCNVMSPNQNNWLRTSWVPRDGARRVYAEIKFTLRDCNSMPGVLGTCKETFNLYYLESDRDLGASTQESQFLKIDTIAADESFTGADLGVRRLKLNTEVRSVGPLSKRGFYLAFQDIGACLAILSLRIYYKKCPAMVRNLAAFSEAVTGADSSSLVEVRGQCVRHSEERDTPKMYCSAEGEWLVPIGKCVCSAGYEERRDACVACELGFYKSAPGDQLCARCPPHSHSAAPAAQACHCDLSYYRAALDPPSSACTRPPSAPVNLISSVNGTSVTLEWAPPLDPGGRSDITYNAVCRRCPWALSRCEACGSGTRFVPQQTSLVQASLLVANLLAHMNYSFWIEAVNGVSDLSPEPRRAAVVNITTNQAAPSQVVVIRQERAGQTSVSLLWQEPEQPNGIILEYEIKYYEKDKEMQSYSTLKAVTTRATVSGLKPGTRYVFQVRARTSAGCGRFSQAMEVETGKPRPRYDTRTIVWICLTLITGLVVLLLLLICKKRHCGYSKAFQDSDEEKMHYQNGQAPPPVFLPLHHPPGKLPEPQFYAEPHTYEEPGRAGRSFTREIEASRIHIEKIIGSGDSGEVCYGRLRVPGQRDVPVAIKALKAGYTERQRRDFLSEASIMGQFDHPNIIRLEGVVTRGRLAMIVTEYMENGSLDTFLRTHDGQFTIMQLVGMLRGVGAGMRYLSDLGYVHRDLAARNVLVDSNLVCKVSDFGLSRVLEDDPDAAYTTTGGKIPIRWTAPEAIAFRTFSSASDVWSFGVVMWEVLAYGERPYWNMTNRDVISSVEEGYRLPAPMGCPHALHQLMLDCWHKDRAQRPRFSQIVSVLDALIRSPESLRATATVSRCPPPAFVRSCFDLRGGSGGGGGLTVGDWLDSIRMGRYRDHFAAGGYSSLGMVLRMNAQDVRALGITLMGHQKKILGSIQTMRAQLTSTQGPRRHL
# ASSAY INFO: Kinase panel profiling at 1 µmol/L (mobility shift assay, Carna)
# Type: biochemical
# RUN CONDITIONS: 1 µmol/L of BTK inhibitor
Exercise: state measured Percentage inhibition of kinase enzyme activity for each of the compounds provided.
Numbers only, in %.

Examples with their reported Percentage inhibition of kinase enzyme activity follow.
> print(dat)
                            compound.smiles                       subject.of.test  value.observed
1  O=C(c1ccc(Oc2ccccc2)cc1Cl)c1c[nH]c2ncnc(N[C@@H]3CC[C@@H](CO)OC3)c12  EPHA8 (Homo sapiens, UniProt P29322)           50.84
2  C=CC(=O)N1CCC[C@@H](n2nc(-c3ccc(Oc4ccccc4)cc3)c3c(N)ncnc32)C1  EPHA8 (Homo sapiens, UniProt P29322)           54.68
3  COc1ccc(F)cc1C(=O)NCc1ccc(-c2nn([C@@H](C)C(F)(F)F)c(N)c2C(N)=O)cc1  EPHA8 (Homo sapiens, UniProt P29322)          -19.48
4  CC#CC(=O)N1CCC[C@H]1c1nc(-c2ccc(C(=O)Nc3ccccn3)cc2)c2c(N)nccn12  EPHA8 (Homo sapiens, UniProt P29322)            6.51

Proceed to the following item.
Returns the measured Percentage inhibition of kinase enzyme activity for the input compound. Input: C=CC(=O)N1CCC([C@@H]2CCNc3c(C(N)=O)c(-c4ccc(Oc5ccccc5)cc4)nn32)CC1 -2.10

----------
# Test system: 786-O
# ASSAY INFO: Cell viability assay (ATPlite)
# Format: cell-based
# RUN CONDITIONS: Homo sapiens, 786-0; 786-O cell line, 72 hours incubation
OUTCOME MEASURE: IC50 (µM)
One number for each entry, in µM.

Any idea what IC50 was measured for O=C(c1ccc(Oc2ccccc2)cc1Cl)c1c[nH]c2ncnc(N[C@@H]3CC[C@@H](CO)OC3)c12 ? 6.71

----------
# SUBJECT OF TEST: FGFR3 (Homo sapiens, UniProt P22607)
# Sequence (P22607 23-806): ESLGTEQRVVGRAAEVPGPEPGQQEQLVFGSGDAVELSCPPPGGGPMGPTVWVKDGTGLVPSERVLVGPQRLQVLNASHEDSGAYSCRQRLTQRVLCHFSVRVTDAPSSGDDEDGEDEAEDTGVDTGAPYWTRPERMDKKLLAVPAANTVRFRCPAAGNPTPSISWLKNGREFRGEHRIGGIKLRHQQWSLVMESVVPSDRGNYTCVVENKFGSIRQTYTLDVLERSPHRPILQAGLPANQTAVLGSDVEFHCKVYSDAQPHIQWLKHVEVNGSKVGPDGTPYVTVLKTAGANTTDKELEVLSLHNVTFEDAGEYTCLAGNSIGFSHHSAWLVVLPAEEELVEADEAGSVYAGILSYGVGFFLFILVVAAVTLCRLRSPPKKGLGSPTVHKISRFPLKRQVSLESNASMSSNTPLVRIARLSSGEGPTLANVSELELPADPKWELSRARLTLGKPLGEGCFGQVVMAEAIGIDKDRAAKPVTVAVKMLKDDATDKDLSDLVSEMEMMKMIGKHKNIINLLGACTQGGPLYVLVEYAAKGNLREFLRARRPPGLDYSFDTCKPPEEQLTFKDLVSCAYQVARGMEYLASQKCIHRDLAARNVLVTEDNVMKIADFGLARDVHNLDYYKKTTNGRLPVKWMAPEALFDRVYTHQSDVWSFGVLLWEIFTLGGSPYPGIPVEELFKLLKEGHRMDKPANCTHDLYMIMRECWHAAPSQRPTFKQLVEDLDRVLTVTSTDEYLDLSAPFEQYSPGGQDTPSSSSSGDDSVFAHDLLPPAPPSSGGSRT
OUTCOME MEASURE: pIC50
Answers are plain numbers, as −log10 of the molar value.

What does the record list as pIC50 for O=C(c1ccc(Oc2ccccc2)cc1Cl)c1c[nH]c2ncnc(N[C@@H]3CC[C@@H](CO)OC3)c12 [nemtabrutinib] ? 7.15
